Assay Overview: Solubility in water
Type: physicochemical
Condition Set: 25° C.
From the text: Accordingly, for the desired once a day administration, specific pharmaceutical formulations with modified release of the active ingredient (I), taking account of its physicochemical and biological properties, are required.

{"Mol": "O=C(NC[C@H]1CN(c2ccc(N3CCOCC3=O)cc2)C(=O)O1)c1ccc(Cl)s1", "solubility": "~7 µg/mL"}
